Test system: SNB-75
Assay: NCI tumour cell line growth inhibition, 48 h
Active and inactive are the calls of the source. No stated cut-off is given here; in the data, active = GI50 up to about 1.1 µM and inactive = higher.

{"compound": "S=C1NCCN1C(=S)Nc1ccccc1", "GI50": "32.4 µM (inactive)"}
{"compound": "COc1cc(C=O)cc(/C=N/c2ccc(Br)cc2)c1O", "GI50": "23.8 µM (inactive)"}
{"compound": "CC(C)NC(=O)N(Nc1ccccc1)C(C)(C)C", "GI50": "73.8 µM (inactive)"}
{"compound": "COc1cccc(C2c3cc4c(cc3OC(NNC(N)=O)C2C)OCO4)c1O (centres undefined)", "GI50": "4.33 µM (inactive)"}
{"compound": "Cc1cccc(C)c1NC(=O)CCc1nnc2s/c(=C\\c3ccc(N(C)C)cc3)c(=O)n12", "GI50": "> 100 µM (inactive)"}
{"compound": "Cc1ccc(Nc2nc3c(s2)C(=O)c2ccccc2C3=O)cc1", "GI50": "2.14 µM (inactive)"}
{"compound": "COC1CC(OC2CCC3(C)C(=CCC4C3C(OC(C)=O)C(OC(=O)CC(C)C)C3(C)C(C(C)=O)CCC43O)C2)OC(C)C1OC1CC(OC)C(OC2CC(OC)C(OC3OC(C)C(OC4OC(CO)C(O)C(O)C4O)C(OC)C3O)C(C)O2)C(C)O1 (centres undefined)", "GI50": "> 75 µM (inactive)"}
{"compound": "Cc1cccc(C)c1NC(=O)CCC(=O)NNC(=O)c1cc(O)c2ccccc2c1", "GI50": "> 100 µM (inactive)"}
{"compound": "COc1ccc(-c2c(-c3ccccc3)c(C)nc3[nH]c(=S)[nH]c(=S)c23)cc1OC", "GI50": "42 µM (inactive)"}
{"compound": "C=CCOc1ccc(N)c([N+](=O)[O-])c1", "GI50": "89.3 µM (inactive)"}
{"compound": "C/C(CCn1[nH]c(=O)ccc1=O)=N\\O", "GI50": "> 100 µM (inactive)"}
{"compound": "O=C1[C@H]2ON(c3ccccc3)C(c3ccccc3)[C@H]2C(=O)N1c1ccc(Cc2ccc(N3C(=O)[C@@H]4ON(c5ccccc5)C(c5ccccc5)[C@@H]4C3=O)cc2)cc1 (some centres undefined)", "GI50": "> 100 µM (inactive)"}
{"compound": "Cc1ccc(C(=O)N/N=C2/C(=O)c3c4ccccc4cc4cccc2c34)cc1", "GI50": "26.7 µM (inactive)"}
{"compound": "CCCCCCOc1ccc(C(=O)N(C)O)cc1", "GI50": "27.3 µM (inactive)"}
{"compound": "CC12NC(=C(C#N)C#N)C(C#N)=C3NC(N)=C(C#N)C(=C31)Oc1ccccc12 (centres undefined)", "GI50": "> 57.1 µM (inactive)"}
{"compound": "Cc1c(N(C)C)ccc2c(=O)c3cccc(CC(=O)O)c3oc12", "GI50": "> 100 µM (inactive)"}
{"compound": "CCc1c(OC(C)=O)c2c(NC3OC(COC(C)=O)C(OC(C)=O)C(OC(C)=O)C3OC(C)=O)nc(OC)nc2oc1=O (centres undefined)", "GI50": "> 100 µM (inactive)"}
{"compound": "Cc1cc(C)nc(NS(=O)(=O)c2ccc(Nc3c4ccccc4nc4c(C(=O)NCCN(C)C)ccc(Cl)c34)cc2)n1", "GI50": "2.59 µM (inactive)"}
{"compound": "Cn1nc2ccc3nccc(N(CCO)CCO)c3c2n1", "GI50": "> 100 µM (inactive)"}

Cited source: ChEMBL document CHEMBL1201862
